- EXPERIMENT DESCRIPTION: viability of PTEN-null HCT116 cells – cell-based, HCT116 clonal line, CellTiter-Glo, pilot screen (AID 824);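 note: 0% = 20 µM Hyamine control and 100% = vehicle cell control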
- MEASUREMENT SETUP: HCT116 PTEN-deleted viability, 60 h, at 10 µM, stronger effect = lower value
Inconclusive results are not listed.
Below is a list of entries, each paired with its recorded viability value.
RESULT TYPE: viability (%)

1) Cc1ccc(S(=O)(=O)Cc2ccc(C(=O)N3CCN(Cc4ccccc4)CC3)o2)cc1    94.9
2) CC1(C)CC(=O)C(=CN2CCN(C(=O)c3ccco3)CC2)C(=O)C1    90.3
3) Cc1c(NC(=O)C2CCCCN2S(=O)(=O)c2ccc(Cl)cc2)c(=O)n(-c2ccccc2)n1C (stereo unspecified)    103
4) CCOC(=O)N1CCN(C(=O)c2cc3c(=O)n(C)c4ccccc4c3n2C)CC1    89.9
5) COc1ccc(NC(=O)CN(c2cc(C)cc(C)c2)S(=O)(=O)c2c(C)noc2C)cc1OC    92.5
6) Cc1ccc(-c2nc(CSCC(=O)N3CCN(C(=O)c4ccco4)CC3)c(C)o2)cc1    76.5
7) Cc1cc2cc(CNC(=O)c3ccco3)ccc2n1C    94.4
8) COC(=O)c1cc(-c2ccccc2)sc1NC(=O)c1cc(C)on1    84.2
9) Cn1nnnc1SCC(=O)Nc1ccccc1C(=O)NCc1ccccc1    97.8
10) CCOc1ccc(NC(=O)CSc2nc3c(c(=O)n2-c2ccccc2OC)SCC3)cc1    82.5
11) Cc1ccc(S(=O)(=O)NCCSc2nnnn2-c2ccc(C(N)=O)cc2)cc1    89.8
12) CC(=O)c1ccc(NC(=O)CSC(C)C)cc1    97.9
13) CCc1ccc(N(CC(=O)NC2CCCC2)S(=O)(=O)c2c(C)noc2C)cc1    93.8
14) C/C=C/COC(=O)c1[nH]c2c(c1C)C(=O)CC(c1ccco1)C2 (stereo unspecified)    19.8
15) CCOc1ccc(N(CC(=O)NCCCOC)S(C)(=O)=O)cc1    101
16) O=C(NCc1ccccc1Cl)C1CCN(C(=O)c2sccc2-n2cccc2)CC1    86.8
17) C/C=C/CSc1nc2c(c(=O)[nH]c(=O)n2C)n1Cc1ccc(C)cc1    69.3
18) CCCC(=O)Nc1nc2ccc(S(N)(=O)=O)cc2s1    90.5
19) Clc1ccc(SCCCCn2ccnc2)cc1    65.7
20) C=CCn1c(SCc2cccc(C#N)c2)nnc1-c1ccccc1O    88.4
21) O=C(CSc1nc2c(c(=O)n1-c1ccc(F)cc1)SCC2)NCC1CCCO1 (stereo unspecified)    90.9
22) CC1CCCCN1S(=O)(=O)c1ccc(NC(=O)c2cccs2)cc1 (stereo unspecified)    82
23) Nc1nc(NC(=O)c2ccco2)nn1-c1ccccc1    98.6
24) Cc1c(C#N)c2ccccc2n1CC(=O)N1CCc2ccccc2C1    92.7
25) COC(=O)c1[nH]c2c(c1C)C(=O)CC(c1cc(OC)ccc1OC)C2 (stereo unspecified)    29.4
26) COc1ccc(CCNC(=O)c2cc3sc(Cl)cc3n2C)cc1OC    77.3

====

- EXPERIMENT DESCRIPTION: Her2 expression decrease, cell viability multiplex – SKBR3 breast tumor cells, AlphaScreen, ATP viability, primary screen (AID 461);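 note: percent of carrier control wells set as 100% viability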
- MEASUREMENT SETUP: SKBR3 Her2 protein level, 18-24 h, measured here: SKBR3 viability, ATP luminescence, at 10 µM
// viability lookup, one value per entry
RESULT TYPE: viability

1. Cc1cccc(NC(=O)Nc2cccc(C#N)c2)n1    100%
2. CCN(CC)CCn1c(=N)n(CCO)c2ccccc21    94.5%
3. Cc1ccc(C(=O)OCC(=O)Nc2ccc3c(c2)OCO3)o1    110%
4. c1ccc(Cn2nnc3c(N4CCCCCC4)ncnc32)cc1    94%
5. COc1ccc(N(CC(=O)Nc2ccc3c(c2)OCO3)S(=O)(=O)c2c(C)nn(C)c2C)cc1    90.5%
6. CC(C)c1nnc(NC(=O)c2ccc(N3C(=O)CCC3=O)cc2)s1    91.5%
7. O=C1c2ccccc2C(Nc2cccnc2)N1Cc1ccccc1Cl (configuration not stated)    93%

====

- EXPERIMENT DESCRIPTION: yeast transport mutant growth inhibition pilot in 384-well plates, post-Golgi transport modulator project (AID 636)
- MEASUREMENT SETUP: absorbance 615 nm, about 18 h, stronger effect = higher value
Recorded measurements of inhibition, one per entry
RESULT TYPE: inhibition (%)

1) Cc1ccc(S(=O)(=O)C(C#N)c2nc3ccccc3nc2N2CCCCC2)cc1 (stereo not given)    -6.13
2) CC(=O)NC(C)C(=O)OCC(=O)Nc1ccc(Br)cc1 (stereo not given)    0.13
3) Cc1ccc(C)c(N2CCN(CCCNC(=O)Cn3cc4c(n3)CCCCC4)CC2)c1    -2.69
4) O=C(CCn1c(=O)oc2ccccc21)NCCN1CCOCC1    0.8
5) CCOc1cc(C2NC(=O)NC(O)(C(F)(F)F)C2C(=O)c2ccccc2)ccc1OC (stereo not given)    -4.46

====

- EXPERIMENT DESCRIPTION: doxorubicin toxicity protection in MRP-1 cells – H69AR cells, CellTiter-Glo, duplicate, MRP-1 activator project, pilot screen (AID 807);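 note: compound pretreatment 18-22 h then 72 h combined with doxorubicin; 0% = doxorubicin alone and 100% = vehicle without doxorubicin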
- MEASUREMENT SETUP: H69AR viability with doxorubicin, CellTiter-Glo luminescence; at 10 µM; stronger effect = higher value
RESULT TYPE: viability increase (%)

1. O=C(NC1CCN(Cc2ccccc2)CC1)C1CCN(S(=O)(=O)c2cccc3cccnc23)CC1    1.84
2. CC1(C)CC(=O)c2cnc(NC(=O)Cc3ccc(Cl)cc3)nc2C1    2.03
3. O=C(c1sc2ccccc2c1Cl)N(Cc1cccs1)C1CCS(=O)(=O)C1 (centres undefined)    -4.05
4. COC(=O)c1ccc(NC(=O)CN2CCCC2)cc1    -0.69
5. O=C(CN1C(=O)CCC1=O)Nc1nc2c(F)cc(F)cc2s1    -0.91
6. CCC(C)(NC(=O)CNC(C)=O)C(=O)NC1CCCCC1 (centres undefined)    -1.92
7. CN(C)CCCN1C(=O)CSC1c1ccccc1 (centres undefined)    -0.9
8. Cn1c(NC(=O)c2ccccc2NC(=O)C(C)(C)C)nc2ccccc21    -2.36
9. NC(=O)CSc1ncnc2c1oc1ccccc12    -2.08
10. COCCOC(=O)c1[nH]c2c(c1C)C(=O)CC(c1ccco1)C2 (centres undefined)    -4.07
11. O=C(CS(=O)(=O)c1cn(Cc2ccc(F)cc2)c2ccccc12)N1CCCCC1    -3.63
12. Cc1ccc(C)c2[nH]c(=O)c(CCNC(=O)c3ccc(S(=O)(=O)N(C)C)cc3)cc12    -4.33
13. COc1ccc(C2CC(c3cccc(Cl)c3)n3nc(N)nc3N2)cc1 (centres undefined)    -0.53
14. c1ccc(-c2nc(CSc3nnnn3-c3ccccc3)cs2)cc1    -2.18
15. CC1CCCCC1NC(=O)CCS(=O)(=O)c1cccc2nonc12 (centres undefined)    -2.34
16. Cn1c(SCC(=O)Nc2ccc(F)cc2)nnc1-c1cccnc1    2.18
17. O=C(NCCN1C(=O)C2C3C=CC(C3)C2C1=O)Nc1ccccn1 (centres undefined)    -0.81
18. Cc1cc(C)n(-c2ccc(N3CCOCC3)nn2)n1    -0.17
19. COc1ccc(CC(=O)NCc2nnc(SCC(=O)Nc3nccs3)n2-c2ccccc2)cc1    -1.27
20. CCOC(=O)Cc1nnc(NC(=O)c2ccccc2OCC)s1    -0.28
21. CCOC(=O)Nc1ccc2c(c1)N(C(=O)N(C)C)c1ccccc1CC2    -1.82
22. COc1cc(C2C(C#N)=C(C)NC3=C2C(=O)CC(C)(C)C3)ccc1OCCO (centres undefined)    -0.94
23. O=C(Nc1ccncc1)c1cc2ccccc2o1    -0.51
24. CCCn1cc(SCC(N)=O)c2ccccc21    -1.96
25. CCOC(=O)N1CCC(NC(=O)C2CCN(Cc3nc(-c4ccc(CC)cc4)oc3C)CC2)CC1    -1.2
26. Cn1c(C(=O)Nc2ccc3c(c2)OCO3)cc2c(=O)n(C)c3ccccc3c21    -2.91
27. CCOC(=O)c1ccc2[nH]c3c(c2c1)CN(C)CC3    0.26
28. CC1CN(c2ccc(Oc3ccccc3)cc2)c2nc3c(c(=O)n(CC(N)=O)c(=O)n3C)n2C1 (centres undefined)    -3.54
29. COc1ccc(N(C)C(=O)CCS(=O)(=O)c2cccc3nonc23)cc1    -3.05
30. Cc1ccnc(SCCn2c(N3CCN(Cc4ccccc4)CC3)nc3c2c(=O)[nH]c(=O)n3C)n1    -1.27
31. CCOC(=O)c1ccc2ncc(C(=O)OCC)c(NCCN(C)C)c2c1    -1.02
32. CCOCCCNC(=O)Cn1cc2c(n1)CCCCC2    -0.62
33. CC(=O)CCc1c(C)[nH]c2ccc(NC(C)=O)cc2c1=O    -0.95
34. O=C(c1ccco1)N1CCN(C(=O)C2CC(c3ccc(F)cc3)=NO2)CC1 (centres undefined)    -1.41
35. Cc1cc(C)c2c(=O)n(CC(=O)N3CCC(Cc4ccccc4)CC3)sc2n1    -6.66
36. O=C(Nc1ccc(Cl)cn1)c1cccnc1    -4.65
37. Cc1nnc(NC(=O)CSc2nnc(Cc3cccn3C)n2-c2cccc(C)c2C)s1    -0.56
38. Cc1cccc(-n2ncc3c(N4CCC5(CC4)OCCO5)ncnc32)c1    -7.22
39. Cc1cc(NC(=O)CSc2nc3c(c(-c4cccnc4)c2C#N)CCC3)no1    0.51

Where do the numbers come from? From PubChem BioAssay.
